Biological target: MAPK10 (human) (UniProt P53779)
Sequence (P53779 whole entry, looked up): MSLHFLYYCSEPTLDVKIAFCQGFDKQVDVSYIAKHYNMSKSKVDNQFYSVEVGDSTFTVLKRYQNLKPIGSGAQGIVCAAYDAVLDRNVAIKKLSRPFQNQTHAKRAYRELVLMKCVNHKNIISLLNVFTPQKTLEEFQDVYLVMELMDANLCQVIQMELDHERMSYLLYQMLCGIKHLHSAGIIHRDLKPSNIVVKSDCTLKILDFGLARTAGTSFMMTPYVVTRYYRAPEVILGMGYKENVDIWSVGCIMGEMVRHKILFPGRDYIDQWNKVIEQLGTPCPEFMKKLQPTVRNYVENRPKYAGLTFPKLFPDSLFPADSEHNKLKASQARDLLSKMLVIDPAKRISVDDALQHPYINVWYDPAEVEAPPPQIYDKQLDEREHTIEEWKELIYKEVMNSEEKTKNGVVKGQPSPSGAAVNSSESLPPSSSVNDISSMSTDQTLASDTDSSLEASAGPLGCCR
Test: KINOMEscan competition binding
Conditions: compound 10.0 µM
parameter: kinase still bound, per cent of control (%)
Field format: number, assumed %, no unit text.

Task: Quickly give me recorded kinase still bound, per cent of control for COc1cc(C(=O)NC2CCN(C)CC2)ccc1Nc1ncc2c(n1)N(C1CCCC1)C(C)CC(=O)N2C (centres undefined)
Result: 100

Task: Identify measured kinase still bound, per cent of control corresponding to CCC(=O)N1CCN(c2ccc(-n3c(=O)ccc4cnc5ccc(-c6cnc7ccccc7c6)cc5c43)cc2C(F)(F)F)CC1
Result: 31

====

Quick list: kinase still bound, per cent of control per entry.
Biological target: RAF1 (human) (UniProt P04049)
Sequence (P04049 whole entry, looked up): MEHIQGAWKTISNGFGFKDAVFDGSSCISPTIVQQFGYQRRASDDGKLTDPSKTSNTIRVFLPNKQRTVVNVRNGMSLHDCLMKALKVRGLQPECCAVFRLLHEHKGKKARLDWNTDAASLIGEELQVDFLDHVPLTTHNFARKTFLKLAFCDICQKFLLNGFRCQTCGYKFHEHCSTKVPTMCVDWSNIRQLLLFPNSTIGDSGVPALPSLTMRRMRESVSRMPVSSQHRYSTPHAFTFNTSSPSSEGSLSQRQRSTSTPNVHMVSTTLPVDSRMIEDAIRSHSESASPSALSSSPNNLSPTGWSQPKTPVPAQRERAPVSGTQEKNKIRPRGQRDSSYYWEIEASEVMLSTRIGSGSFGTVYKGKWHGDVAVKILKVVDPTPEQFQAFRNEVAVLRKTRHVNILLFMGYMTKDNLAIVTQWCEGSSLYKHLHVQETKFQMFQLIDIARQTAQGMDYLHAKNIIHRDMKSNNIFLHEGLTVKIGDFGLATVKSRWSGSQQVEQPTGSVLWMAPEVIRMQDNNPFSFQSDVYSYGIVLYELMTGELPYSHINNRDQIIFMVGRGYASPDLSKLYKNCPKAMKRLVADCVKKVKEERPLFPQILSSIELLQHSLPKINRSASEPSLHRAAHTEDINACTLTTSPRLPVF
Assay: KINOMEscan competition binding
Settings: compound 10.0 µM

Cn1c(=O)n(-c2ccc(C(C)(C)C#N)cc2)c2c3cc(-c4cnc5ccccc5c4)ccc3ncc21; 100%
COc1cc(N2CCN(C)CC2)ccc1Nc1nc(N)c(C(=O)c2c(Cl)cccc2Cl)s1; 100%
C=CC(=O)Nc1cc(NC(=O)c2ccc(C)c(NC(=O)c3ccno3)c2)cc(C(F)(F)F)c1; 40%
CCC(=O)N1CCN(c2ccc(-n3c(=O)ccc4cnc5ccc(-c6cnc7ccccc7c6)cc5c43)cc2C(F)(F)F)CC1; 48%

Task: Indicate the recorded kinase still bound, per cent of control value for this compound: COc1cc(C(=O)NC2CCN(C)CC2)ccc1Nc1ncc2c(n1)N(C1CCCC1)CCC(=O)N2C(C)C
Result: 100%

Task: Indicate its recorded kinase still bound, per cent of control; the compound in question is CCN1CCN(Cc2ccc(Nc3ncc4c(n3)N(C)c3ccccc3C(=O)N4C)cc2C(F)(F)F)CC1
Result: 100%

Task: Please indicate kinase still bound, per cent of control recorded for CCOc1cc2ncc(C#N)c(Nc3ccc(OCc4ccccn4)c(Cl)c3)c2cc1NC(=O)/C=C/CN(C)C
Result: 100%

Task: Please give measured kinase still bound, per cent of control of the following entry: Cc1ccc(C(=O)Nc2cccc(C(F)(F)F)c2)cc1Nc1cncc(C(N)=O)c1
Result: 4.5%

Task: Read off the recorded kinase still bound, per cent of control for Cc1ccc2nc(NCCN)c3ncc(C)n3c2c1
Result: 100%

====

Molecular target: PIK3CA (human) (UniProt P42336)
Sequence (P42336 whole entry, looked up): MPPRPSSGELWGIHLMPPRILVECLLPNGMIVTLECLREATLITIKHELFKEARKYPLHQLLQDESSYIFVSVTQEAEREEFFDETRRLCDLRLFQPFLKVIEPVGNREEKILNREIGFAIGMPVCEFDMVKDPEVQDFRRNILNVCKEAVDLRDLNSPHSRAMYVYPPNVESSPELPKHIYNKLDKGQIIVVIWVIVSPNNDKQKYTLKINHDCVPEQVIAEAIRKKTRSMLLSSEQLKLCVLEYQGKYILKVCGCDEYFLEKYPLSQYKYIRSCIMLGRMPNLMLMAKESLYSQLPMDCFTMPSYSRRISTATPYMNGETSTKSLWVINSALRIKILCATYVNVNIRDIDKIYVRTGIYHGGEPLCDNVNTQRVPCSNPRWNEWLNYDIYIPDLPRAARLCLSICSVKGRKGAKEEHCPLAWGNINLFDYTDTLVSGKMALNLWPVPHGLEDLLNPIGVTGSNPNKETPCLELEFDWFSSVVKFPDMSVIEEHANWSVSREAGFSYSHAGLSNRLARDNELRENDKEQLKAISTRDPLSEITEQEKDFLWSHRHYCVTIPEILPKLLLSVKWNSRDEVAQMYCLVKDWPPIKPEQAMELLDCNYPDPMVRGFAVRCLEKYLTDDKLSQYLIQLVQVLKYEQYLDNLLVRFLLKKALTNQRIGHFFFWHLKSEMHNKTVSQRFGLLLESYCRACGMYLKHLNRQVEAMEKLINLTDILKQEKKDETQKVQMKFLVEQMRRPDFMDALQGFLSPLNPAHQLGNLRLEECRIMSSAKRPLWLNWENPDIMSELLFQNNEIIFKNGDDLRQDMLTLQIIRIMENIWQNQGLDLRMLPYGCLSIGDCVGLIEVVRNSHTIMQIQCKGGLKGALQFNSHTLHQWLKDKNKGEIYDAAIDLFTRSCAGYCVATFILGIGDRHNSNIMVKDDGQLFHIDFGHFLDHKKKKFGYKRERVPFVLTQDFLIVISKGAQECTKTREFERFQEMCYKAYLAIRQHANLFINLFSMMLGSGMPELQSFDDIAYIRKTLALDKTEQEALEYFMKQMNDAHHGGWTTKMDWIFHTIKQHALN
Assay: KINOMEscan competition binding
Conditions: compound 10.0 µM
parameter: kinase still bound, per cent of control

C[C@@H](Oc1cc(-n2cnc3ccc(CN4CCN(C)CC4)cc32)sc1C(N)=O)c1ccccc1C(F)(F)F; 52%
O=C(O)c1ccc(Nc2ncc3c(n2)-c2ccc(Cl)cc2C(c2c(F)cccc2F)=NC3)cc1; 100%
CC[C@@H]1C(=O)N(C)c2cnc(Nc3ccc(C(=O)NC4CCN(C)CC4)cc3OC)nc2N1C1CCCC1; 100%
N#Cc1c(NC(=O)c2cccc3ccccc23)sc2c1CCCC2; 99%
Cc1ccc(C(=O)Nc2cccc(C(F)(F)F)c2)cc1Nc1cncc(C(N)=O)c1; 100%

Attention now turns to another entry.
Task: Give recorded kinase still bound, per cent of control. COc1cc(C(=O)NC2CCN(C)CC2)ccc1Nc1ncc2c(n1)N(C1CCCC1)C(C)CC(=O)N2C (stereo not drawn)
Result: 100%

====

Molecular target: PKN2 (human) (UniProt Q16513)
Sequence (Q16513 whole entry, looked up): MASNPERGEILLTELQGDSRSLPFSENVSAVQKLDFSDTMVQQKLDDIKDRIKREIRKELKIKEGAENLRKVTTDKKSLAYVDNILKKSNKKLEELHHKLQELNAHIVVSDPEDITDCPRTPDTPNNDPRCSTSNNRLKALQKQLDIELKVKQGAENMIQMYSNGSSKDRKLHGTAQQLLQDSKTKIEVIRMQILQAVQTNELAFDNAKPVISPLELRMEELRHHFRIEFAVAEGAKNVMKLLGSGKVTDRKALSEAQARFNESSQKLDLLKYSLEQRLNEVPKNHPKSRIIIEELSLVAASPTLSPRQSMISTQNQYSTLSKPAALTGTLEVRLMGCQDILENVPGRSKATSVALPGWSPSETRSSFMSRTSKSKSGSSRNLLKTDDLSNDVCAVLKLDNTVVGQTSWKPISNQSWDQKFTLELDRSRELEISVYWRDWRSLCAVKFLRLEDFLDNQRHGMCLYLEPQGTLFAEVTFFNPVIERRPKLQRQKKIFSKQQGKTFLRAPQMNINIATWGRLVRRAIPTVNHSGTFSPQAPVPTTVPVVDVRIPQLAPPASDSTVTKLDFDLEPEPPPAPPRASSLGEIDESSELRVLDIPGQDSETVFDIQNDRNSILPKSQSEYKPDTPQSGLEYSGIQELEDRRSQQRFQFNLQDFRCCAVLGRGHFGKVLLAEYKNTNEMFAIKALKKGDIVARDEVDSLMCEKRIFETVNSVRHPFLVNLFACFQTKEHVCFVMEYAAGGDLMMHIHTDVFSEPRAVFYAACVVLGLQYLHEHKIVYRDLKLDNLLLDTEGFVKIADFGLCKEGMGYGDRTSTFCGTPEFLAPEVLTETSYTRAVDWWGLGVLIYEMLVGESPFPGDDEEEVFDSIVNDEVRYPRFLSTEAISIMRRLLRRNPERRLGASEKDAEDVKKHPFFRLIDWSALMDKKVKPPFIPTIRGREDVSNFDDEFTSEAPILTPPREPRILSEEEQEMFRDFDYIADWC
Assay: KINOMEscan competition binding
Details: compound 10.0 µM
Measured kinase still bound, per cent of control accompanies every entry in the list below.
Answer in %, number only, no unit symbol.

Task: # return recorded kinase still bound, per cent of control for entry COc1cc(C(=O)NC2CCN(C)CC2)ccc1Nc1ncc2c(n1)N(C1CCCC1)C(C)CC(=O)N2C (centres undefined)
Result: 100

Task: Provide kinase still bound, per cent of control value for the following molecule: CCOc1cc2ncc(C#N)c(Nc3ccc(OCc4ccccn4)c(Cl)c3)c2cc1NC(=O)/C=C/CN(C)C
Result: 72

Task: Please report the measured kinase still bound, per cent of control for N#Cc1c(NC(=O)c2cccc3ccccc23)sc2c1CCCC2
Result: 81
